- Test system: xanthurenic acid receptor
- Experiment Summary: Screening: displacement of [3H]-XA binding to synaptic membranes at a fixed concentration
- Particulars: compound at 10 μM; 200 nM [3H]-XA, synaptic membranes; xanthurenic acid set arbitrarily to 100%
Use % inhibition of XA binding at 10 μM* to assign classes; range list: range 1 (below 20%), range 2 (20% to below 60%), range 3 (60% or more)

Lab note: sort O=C(O)c1cc(O)c2cccc(CCc3ccccc3)c2n1 [Compound 111c] into the matching % inhibition of XA binding at 10 μM* band.
range 3

Lab note: sort N#Cc1cccc2c(O)c(C#Cc3ccccc3)c(C(=O)O)nc12 [Compound 67c] into the matching % inhibition of XA binding at 10 μM* band.
range 1

Lab note: sort Cl.Nc1ccc(N2CCCCC2)c2c(O)cc(C(=O)O)nc12 [Compound 77c] into the matching % inhibition of XA binding at 10 μM* band.
range 1

###

- Measurement Target: xanthurenic acid receptor
- Experiment Summary: Competition protocol, IC50 determination against [3H]-XA binding on synaptic membranes
- Particulars: two site binding model, second (higher) IC50; 200 nM [3H]-XA, synaptic membranes; read-out: IC50 (μM), second of two values
- Description: Binding is carried out in 50 mM Pipes buffer pH 7.4 at 0° C. […] If the compound reversibly binds to the binding site of [^3H]-XA, the two ligands will compete with each other and a binding displacement curve for [^3H]-XA can be plotted against the concentration of the competitor molecule. The incubation time is 25 minutes, followed by filtration.
Measurement Type: IC50 (µM)
Express the result in µM but write the number alone.

[[record]]
compound = "O=C(O)c1ccc2cccc(O)c2n1"
unit = "µM"
observed_measurement = 12.3


Turning now to a further compound:
Param item = O=C(O)c1cc(O)c2cccc(O)c2n1 [Xanthurenic acid, reference compound] ; retrieve measured IC50.
57

###

The following compounds are listed with their measured % inhibition of XA binding at 10 μM* values.
- Test system: xanthurenic acid receptor
- Experiment Summary: Screening: displacement of [3H]-XA binding to synaptic membranes at a fixed concentration
- Particulars: compound at 10 μM; 200 nM [3H]-XA, synaptic membranes; xanthurenic acid set arbitrarily to 100%
Express the result in % but write the number alone.

These solved cases illustrate the format of a correct answer.
[[record]]
compound = "O=C(O)c1cc(O)c2cc(CNCc3ccccc3)cc(O)c2n1 [Compound 26a]"
unit = "%"
observed_measurement = 0

[[record]]
compound = "Cl.Nc1cc(N)c2nc(C(=O)O)cc(O)c2c1 [Compound 32d]"
unit = "%"
observed_measurement = 117

[[record]]
compound = "O=C(Nc1cccc2c(O)cc(C(=O)O)nc12)c1ccccc1 [Compound 28c]"
unit = "%"
observed_measurement = 48.5

[[record]]
compound = "Cl.O=C(O)c1cc(O)c2cccc(-c3nn[nH]n3)c2n1 [Compound 62b]"
unit = "%"
observed_measurement = 94

[[record]]
compound = "O=C(O)c1cc(O)c2c(C(F)(F)F)ccc(O)c2n1 [Compound 98c]"
unit = "%"
observed_measurement = 94


Param item = O=C(O)c1cc(O)c2c(-c3ccccc3)ccc(O)c2n1 [Compound 19a] ; retrieve measured % inhibition of XA binding at 10 μM*.
1.8

Param item = Cl.Nc1cccc2c(CCc3ccccc3)cc(C(=O)O)nc12 [Compound 94c] ; retrieve measured % inhibition of XA binding at 10 μM*.
37

Numbers sourced from patent US20060183909A1.
